Test system: ATP;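 note: ATP exposure 15 min at 22 °C before imaging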
Assay Comment: switch fluorescence ratio, 500 uM ATP over buffer (Cy3 cluster intensity, sum of 5 cycles each) (fold (ratio)); higher = stronger signal-on switching upon ATP binding; sequences stand for … in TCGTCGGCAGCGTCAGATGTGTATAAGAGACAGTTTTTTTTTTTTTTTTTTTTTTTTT…TC
Study Conditions: aptamer strand: ATP DNA aptamer (quencher-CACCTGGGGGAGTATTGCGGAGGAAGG + anchor), 100 nM annealed; ATP concentration: 500 uM
# switch fluorescence ratio per entry
Simply state the number, no unit and no words.

Item Sequence: GAAGCTTGGT
switch fluorescence ratio: 0.972
--
Item Sequence: AATGGGTATC
switch fluorescence ratio: 0.992
--
Item Sequence: AGACGTAGTG
switch fluorescence ratio: 0.99
--
Item Sequence: TACATGCATG
switch fluorescence ratio: 1

Then this sequence:
Looking up TTGTTAGCCC , I found its switch fluorescence ratio recorded as 1.03

###

Test system: ATP;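 note: ATP exposure 15 min at 22 °C before imaging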
Assay Comment: switch fluorescence ratio, 500 uM ATP over buffer (Cy3 cluster intensity, sum of 5 cycles each) (fold (ratio)); higher = stronger signal-on switching upon ATP binding; sequences stand for … in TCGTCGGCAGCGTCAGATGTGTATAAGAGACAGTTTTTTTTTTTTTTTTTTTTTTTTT…TC
Study Conditions: aptamer strand: ATP DNA aptamer (quencher-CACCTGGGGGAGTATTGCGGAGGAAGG + anchor), 100 nM annealed; ATP concentration: 500 uM
Rule: switch fluorescence ratio of 1 or more gives 1 (yes); anything lower gives 0 (no).

Use the examples below as a reference point.
Item Sequence: ACTAAGGCTC
Class Label: 1 (yes)
--
Item Sequence: TGGTAAAACT
Class Label: 1 (yes)
--
Item Sequence: CGGAGTTAGC
Class Label: 1 (yes)
--
Item Sequence: GACAGAGGGC
Class Label: 0 (no)
--
Item Sequence: ATTGAATTAG
Class Label: 0 (no)

Next, consider the following sequence.
Kindly determine if switch fluorescence ratio recorded for TCATGGGCCG is above or exactly 1.
1 (yes)

###

Reported switch fluorescence ratio values are given for each entry in this list.
System: ATP;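 note: ATP exposure 15 min at 22 °C before imaging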
Assay Comment: switch fluorescence ratio, 500 uM ATP over buffer (Cy3 cluster intensity, sum of 5 cycles each) (fold (ratio)); higher = stronger signal-on switching upon ATP binding; sequences stand for … in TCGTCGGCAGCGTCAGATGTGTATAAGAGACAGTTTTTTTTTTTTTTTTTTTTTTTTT…TC
Study Conditions: aptamer strand: ATP DNA aptamer (quencher-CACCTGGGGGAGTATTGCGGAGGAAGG + anchor), 100 nM annealed; ATP concentration: 500 uM
Just the number.

Look over these answered cases.
Item Sequence: AATAGGGGAA
Observed Value: 1.01
--
Item Sequence: TTGATTTGCA
Observed Value: 1
--
Item Sequence: ATATAGGTGG
Observed Value: 0.999
--
Item Sequence: CAAGGGTATT
Observed Value: 1.01

The sequence listed as AAAGGGTCAT has a reported switch fluorescence ratio of 0.992

For GGGATAGATC the sequence record lists switch fluorescence ratio as 1.05

The recorded switch fluorescence ratio for ATCAGATTAC is 1.02

What the record says about TTTCAAGGGG : switch fluorescence ratio is 0.996

The recorded switch fluorescence ratio for TTTTTGATAC is 1.06

Record summary for CTGTATCTTT : reported switch fluorescence ratio = 1.02
